FYI, the data here is from ChEMBL document CHEMBL1155927.

Test system: Hepatitis C virus
assay.details: Antiviral activity against HCV assessed as inhibition of viral RNA replication in Huh7 cells
Assay type: functional, organism-based, Hepacivirus hominis
test.parameters: Huh-7

[
  {
    "structure.smiles": "CON(C)C(=O)CC[C@H]1O[C@@H](n2cnc3c(N)ncnc32)C[C@@H]1O",
    "unit.symbol": "µM",
    "cmp": ">",
    "EC50": 200
  },
  {
    "structure.smiles": "Nc1ncnc2c1ncn2[C@H]1C[C@H](O)[C@@H](CCC(=O)c2ccccc2)O1",
    "unit.symbol": "µM",
    "cmp": ">",
    "EC50": 200
  },
  {
    "structure.smiles": "COC(=O)CC[C@H]1O[C@@H](n2cnc3c(N)ncnc32)C[C@@H]1O",
    "unit.symbol": "µM",
    "cmp": ">",
    "EC50": 200
  },
  {
    "structure.smiles": "O=C(CC[C@H]1O[C@@H](n2cnc3c(Cl)ncnc32)C[C@@H]1O)c1ccccc1",
    "unit.symbol": "µM",
    "cmp": "=",
    "EC50": 15.1
  },
  {
    "structure.smiles": "COC(=O)CC[C@H]1O[C@@H](n2cnc3c(Cl)ncnc32)C[C@@H]1O",
    "unit.symbol": "µM",
    "cmp": "=",
    "EC50": 32.9
  },
  {
    "structure.smiles": "CON(C)C(=O)CC[C@H]1O[C@@H](n2cnc3c(Cl)ncnc32)C[C@@H]1O",
    "unit.symbol": "µM",
    "cmp": "=",
    "EC50": 40.4
  }
]
